Values compiled from ChEMBL document CHEMBL5214978.

test system: LOX IMVI; test: Anticancer activity against human LOX IMVI cells assessed as cell growth inhibition measured after 48 hrs by SRB assay; format: functional
Measured Metric: GI50 (µM)
Numbers only, in µM.

| Smi | Units | Observed Result |
| --- | --- | --- |
| COC(=O)C[C@@H]1NC(=O)c2cc(OCc3cc(C)cc(C)c3)c(NC(=O)c3cc(OC)c(OC)c(OC)c3)cc2NC1=O | µM | 2.99 |

Q: What GI50 appears in the records for this compound with LOX IMVI? CCN(CC)C(=O)C[C@H]1C(=O)Nc2cc(NC(=O)c3c(Cl)c(OC)c(OC)c(OC)c3Br)c(Oc3cc(C)cc(C)c3)cc2C(=O)N1C
Ans: 0.039
